All figures here come from PubChem BioAssay AID1963873.

System: 276233-004-R-J1-PDC KRAS spheroids with HUVEC/MSC, viability;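 also: cells exposed to agents for seven days before viability read; 100% = DMSO vehicle control wells and lower values mean fewer viable cells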
Experiment: Anticancer human tumor 276233-004-R-J1-PDC patient-derived colon adenocarcinoma cell line growth inhibition [KRAS2]
Details: second compound 3.16 µM; first compound 1 µM; stronger effect = lower value
Source text: Multicellular complex tumor spheroid response to RAS pathway inhibitors in combination with a targeted agents in patient-derived cell lines with oncogenic KRAS variants from multiple cancer types A high-throughput screen of multi-cell type tumor spheroids was designed to identify active combinations of targeted small molecules and KRAS pathway inhibitors. […] Compounds. […] If the clinical Cmax for an agent had not been determined, the highest concentration tested was 10 microM. […]
# label = yes (1) if viability, T/C < 40% else no (0)

Query block: Lab log: compare recorded viability, T/C with 40%; is it strictly lower for COC(=O)c1ccc2c(C(=Nc3ccc(N(C)C(=O)CN4CCN(C)CC4)cc3)c3ccccc3)c(O)[nH]c2c1 + CNCc1ccccc1-c1csc(C(C)Nc2nc(C)nc3cc(OC)c(OC)cc23)c1 ?
Result block: yes (1)

Query block: Lab log: compare recorded viability, T/C with 40%; is it strictly lower for COc1cc2nccc(Oc3ccc(NC(=O)C4(C(=O)Nc5ccc(F)cc5)CC4)cc3)c2cc1OC + C=CC(=O)N1CCN(c2nc(=O)n(-c3c(C)ccnc3C(C)C)c3nc(-c4c(O)cccc4F)c(F)cc23)C(C)C1 ?
Result block: no (0)

Query block: Lab log: compare recorded viability, T/C with 40%; is it strictly lower for CC(C)NCC(C(=O)N1CCN(c2ncnc3c2C(C)CC3O)CC1)c1ccc(Cl)cc1 (stereo not given) + CC1OCC2(CCN(c3cnc(Sc4ccnc(N)c4Cl)c(N)n3)CC2)C1N ?
Result block: no (0)

Query block: Lab log: compare recorded viability, T/C with 40%; is it strictly lower for CC(=O)OC12COC1CC(O)C1(C)C(=O)C(O)C3=C(C)C(OC(=O)C(O)C(NC(=O)OC(C)(C)C)c4ccccc4)CC(O)(C(OC(=O)c4ccccc4)C21)C3(C)C (stereo not given) + CC1OCC2(CCN(c3cnc(Sc4ccnc(N)c4Cl)c(N)n3)CC2)C1N ?
Result block: no (0)
